# System: S. aureus
# EXPERIMENT: MIC assayed against S. aureus (Table 1)
# Assay type: cell-based
Peptide text beside a SMILES is read from it. * marks the point of attachment. Hexanoyl = CCCCCC(=O)*
ENDPOINT_LABEL: MIC (minimal inhibitory concentration) (µM)
// return numeric value only (unit: µM, not printed)

Name the recorded MIC (minimal inhibitory concentration) for CCCCCC(=O)N[C@@H](C)C(=O)N[C@@H](CC(C)C)C(=O)N[C@@H](Cc1c[nH]c2ccccc12)C(=O)N[C@@H](CCCCN)C(=O)N[C@H](C(=O)N[C@@H](CC(C)C)C(=O)N[C@@H](CC(C)C)C(=O)N[C@@H](CCCCN)C(=O)N[C@@H](CCCCN)C(=O)N[C@H](C(=O)N[C@@H](CC(C)C)C(=O)N[C@@H](CCCCN)C(=O)N[C@@H](C)C(N)=O)C(C)C)[C@@H](C)O [SEQ ID NO: 1, C6—, —CONH2] (Hexanoyl-ALWKTLLKKVLKA-NH2) .
2.2
